# Test system: VDR:RXRa (NR concentration 270 nM, RXRa partner concentration 90 nM)
# measurement_notes: PBM binding z-score (relative to random genomic background probes); higher = stronger binding; sequences stand for … in GC…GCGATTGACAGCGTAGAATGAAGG
Assign a class from recorded PBM binding z-score; defined classes: low class: < 0.5; middle class: ≥ 0.5 and < 4; high class: ≥ 4

[[record]]
macromolecule_sequence = "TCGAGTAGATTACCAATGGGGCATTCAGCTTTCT"
class = "low class"

[[record]]
macromolecule_sequence = "TGTCAAACTTCAAAGGTAACGTAAGTATCCACAC"
class = "low class"

[[record]]
macromolecule_sequence = "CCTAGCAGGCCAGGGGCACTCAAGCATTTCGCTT"
class = "low class"

[[record]]
macromolecule_sequence = "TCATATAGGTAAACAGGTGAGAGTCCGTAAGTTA"
class = "middle class"

[[record]]
macromolecule_sequence = "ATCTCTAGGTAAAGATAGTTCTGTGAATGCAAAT"
class = "low class"


Kindly identify the class of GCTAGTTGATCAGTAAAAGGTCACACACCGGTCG .
middle class

Kindly identify the class of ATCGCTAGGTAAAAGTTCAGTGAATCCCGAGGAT .
middle class

Please classify: ATCGAAAGGTCGTGAGGTGAGTGTACAGAAAGGC
middle class

* * *

# Test system: PPARg homodimer (NR concentration 180 nM)
# measurement_notes: PBM binding z-score (relative to random genomic background probes); higher = stronger binding; sequences stand for … in GC…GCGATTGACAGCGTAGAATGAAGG
Short version: PBM binding z-score at least 1 is true, less is false.

[[record]]
macromolecule_sequence = "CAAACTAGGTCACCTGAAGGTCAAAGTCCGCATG"
class = "true"

[[record]]
macromolecule_sequence = "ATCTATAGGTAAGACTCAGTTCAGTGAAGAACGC"
class = "false"

[[record]]
macromolecule_sequence = "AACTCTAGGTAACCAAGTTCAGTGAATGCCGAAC"
class = "false"

[[record]]
macromolecule_sequence = "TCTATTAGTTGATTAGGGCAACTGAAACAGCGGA"
class = "false"

[[record]]
macromolecule_sequence = "GGAACGAGGGCAAGTTGATAGAAGAGTTTGATGG"
class = "false"


Would you say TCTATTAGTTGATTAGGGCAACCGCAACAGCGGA shows PBM binding z-score at minimum 1?
false

# bool: PBM binding z-score of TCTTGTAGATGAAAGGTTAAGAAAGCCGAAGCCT >= 1
false

Does PBM binding z-score meet or surpass 1 for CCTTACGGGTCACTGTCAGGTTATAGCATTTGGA ?
true

Reported PBM binding z-score at or above 1? CCTGCTAGGTCATGGTCAGATAATCTACAGTATG
true

Hi, just wondering whether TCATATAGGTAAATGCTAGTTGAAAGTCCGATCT shows PBM binding z-score of 1 or higher.
false

* * *

# Test system: THRa homodimer (NR concentration 90 nM)
# measurement_notes: PBM binding z-score (relative to random genomic background probes); higher = stronger binding; sequences stand for … in GC…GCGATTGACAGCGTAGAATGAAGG
Quick rule: PBM binding z-score of at least -0.1 means criterion met, below that means criterion not met.

[[record]]
macromolecule_sequence = "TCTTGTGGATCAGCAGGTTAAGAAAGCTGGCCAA"
study_system = "THRa homodimer (NR concentration 90 nM)"
class = "criterion not met"

[[record]]
macromolecule_sequence = "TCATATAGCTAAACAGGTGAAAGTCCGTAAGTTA"
study_system = "THRa homodimer (NR concentration 90 nM)"
class = "criterion not met"

[[record]]
macromolecule_sequence = "CCTAGTTGGTCAGGAGGTTACACACCGGATATGA"
study_system = "THRa homodimer (NR concentration 90 nM)"
class = "criterion met"

[[record]]
macromolecule_sequence = "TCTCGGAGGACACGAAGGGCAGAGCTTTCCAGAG"
study_system = "THRa homodimer (NR concentration 90 nM)"
class = "criterion met"

[[record]]
macromolecule_sequence = "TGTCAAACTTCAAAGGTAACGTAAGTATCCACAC"
study_system = "THRa homodimer (NR concentration 90 nM)"
class = "criterion met"

[[record]]
macromolecule_sequence = "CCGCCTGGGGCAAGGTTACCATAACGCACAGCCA"
study_system = "THRa homodimer (NR concentration 90 nM)"
class = "criterion met"


Answer whether PBM binding z-score of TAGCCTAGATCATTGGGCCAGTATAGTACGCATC is greater than or equal to -0.1.
criterion not met

Confirm if PBM binding z-score reported for the sequence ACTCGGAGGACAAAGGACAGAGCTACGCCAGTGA is -0.1 or above.
criterion not met

I'd appreciate it if you could say whether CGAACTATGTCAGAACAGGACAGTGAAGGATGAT has PBM binding z-score at least equal to -0.1.
criterion not met

In plain terms: is recorded PBM binding z-score at least -0.1 for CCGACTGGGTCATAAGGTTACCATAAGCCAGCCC ?
criterion met

Could you verify whether the entry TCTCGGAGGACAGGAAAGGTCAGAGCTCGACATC shows PBM binding z-score of no less than -0.1?
criterion met

Does the reported PBM binding z-score for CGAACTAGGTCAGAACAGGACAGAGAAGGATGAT fall at or above the -0.1 mark?
criterion met

* * *

# Tested on: PPARg:RXRa 270nM:90nM, anti-RXR (NR concentration 270 nM, RXRa partner concentration 90 nM)
# measurement_notes: PBM binding z-score (relative to random genomic background probes); higher = stronger binding; sequences stand for … in GC…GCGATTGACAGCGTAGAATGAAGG
value_kind: PBM binding z-score

Some sequences with recorded PBM binding z-score:
[[record]]
macromolecule_sequence = "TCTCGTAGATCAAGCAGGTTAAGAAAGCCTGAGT"
test_value = 0.861

[[record]]
macromolecule_sequence = "ACTATTTGTTGACTTAGGGCAACCGATACGACGC"
test_value = 0.737

[[record]]
macromolecule_sequence = "ATCGAAAGGTCGAAGGTTAGTATACCCACCCGAA"
test_value = 5.12

[[record]]
macromolecule_sequence = "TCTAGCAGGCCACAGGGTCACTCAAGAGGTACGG"
test_value = 3.02

[[record]]
macromolecule_sequence = "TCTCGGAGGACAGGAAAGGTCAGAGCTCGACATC"
test_value = 2.15


Identify the reported PBM binding z-score for the following entry. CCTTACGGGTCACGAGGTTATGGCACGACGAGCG
6.31

Give recorded PBM binding z-score. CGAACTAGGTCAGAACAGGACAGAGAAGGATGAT
4.26

Return PBM binding z-score (reported value) for this sequence: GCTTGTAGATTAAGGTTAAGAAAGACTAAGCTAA
0.627

Please look at this sequence and report its PBM binding z-score: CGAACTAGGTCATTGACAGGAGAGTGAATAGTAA
6.44

Supply measured PBM binding z-score of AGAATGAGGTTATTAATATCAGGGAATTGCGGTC in your reply.
1.67

Write down PBM binding z-score measured for item ACTCACGGGTCAACGAGGTTATAGCACGCGTATA
4.55

# return recorded PBM binding z-score for entry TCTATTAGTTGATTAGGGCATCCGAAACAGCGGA
1.91

* * *

# Test system: RARb:RXRa (NR concentration 270 nM, RXRa partner concentration 90 nM)
# measurement_notes: PBM binding z-score (relative to random genomic background probes); higher = stronger binding; sequences stand for … in GC…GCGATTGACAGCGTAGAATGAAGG
Label 1 when PBM binding z-score is at or above 3; anything below gets -1.

Example entries and their recorded answers appear below.
[[record]]
macromolecule_sequence = "CTCGAAGGGTCGTGCTCAGGTGAGTATACCAAAC"
class = -1

[[record]]
macromolecule_sequence = "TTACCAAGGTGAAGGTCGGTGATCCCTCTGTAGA"
class = -1

[[record]]
macromolecule_sequence = "CCTGCAAGGTCAATGGTCAGCTAAAGCAGCTCGC"
class = 1

[[record]]
macromolecule_sequence = "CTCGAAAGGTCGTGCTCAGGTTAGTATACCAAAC"
class = 1

[[record]]
macromolecule_sequence = "TCAATGAGGTTAAAGATCAGGGAACGTGGCGTCG"
class = -1

[[record]]
macromolecule_sequence = "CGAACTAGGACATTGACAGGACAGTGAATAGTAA"
class = -1

[[record]]
macromolecule_sequence = "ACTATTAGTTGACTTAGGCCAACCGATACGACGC"
class = -1

[[record]]
macromolecule_sequence = "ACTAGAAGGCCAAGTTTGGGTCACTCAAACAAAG"
class = -1


Item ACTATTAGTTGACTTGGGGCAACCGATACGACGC with PBM binding z-score of 3 or above?
-1

Please tell me: is the sequence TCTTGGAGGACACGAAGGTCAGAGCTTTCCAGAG at or over 3 in terms of PBM binding z-score?
1

Can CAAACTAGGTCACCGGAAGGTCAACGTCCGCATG be said to have PBM binding z-score at or above 3?
1

Threshold query (PBM binding z-score >= 3) on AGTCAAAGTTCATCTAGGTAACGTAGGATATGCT
1

Could you please find out whether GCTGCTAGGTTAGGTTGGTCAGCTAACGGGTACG has PBM binding z-score that meets 3 or exceeds it?
-1

Please check the record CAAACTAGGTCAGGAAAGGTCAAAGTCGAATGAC and state if its PBM binding z-score is at or above 3.
1

Check if PBM binding z-score >= 3 (inclusive). Item: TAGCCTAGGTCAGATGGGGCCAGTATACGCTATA
1

# check: PBM binding z-score of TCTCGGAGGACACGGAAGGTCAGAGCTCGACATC is greater than or equal to 3
1

Could you verify whether the entry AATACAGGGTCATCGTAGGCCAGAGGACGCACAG shows PBM binding z-score of no less than 3?
1

Answer whether PBM binding z-score of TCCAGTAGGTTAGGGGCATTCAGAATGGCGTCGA is greater than or equal to 3.
-1

Does TCTTGTAGATCAAGGGTTAAGAAAGCCGAAGCCT have a reported PBM binding z-score of at least 3?
-1

Decide: PBM binding z-score of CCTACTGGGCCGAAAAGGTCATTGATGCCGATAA >= 3?
1

Reported PBM binding z-score reaches at least 3 for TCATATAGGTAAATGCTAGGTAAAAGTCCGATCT ?
-1

Is PBM binding z-score at least 3? Consider CAGCCTAGGTCAGGGCCAATATAGGAGGAACGTT
1

All figures here come from the supplement of paper PMC6555819.
